# ASSAYED_TARGET: T1, recombinant human CD70 (AviTag, polyhistidine tag and chicken tenascin trimerization domain fused to the … (chicken; human, UniProt P10039 110-139, limits assumed)
# T1 construct: domain: trimerization domain; Expressed in Expi293, purified by IMAC and SEC; Copies 3 is inferred from the trimerization domain; not shown: AviTag; polyhistidine tag
# T1 sequence: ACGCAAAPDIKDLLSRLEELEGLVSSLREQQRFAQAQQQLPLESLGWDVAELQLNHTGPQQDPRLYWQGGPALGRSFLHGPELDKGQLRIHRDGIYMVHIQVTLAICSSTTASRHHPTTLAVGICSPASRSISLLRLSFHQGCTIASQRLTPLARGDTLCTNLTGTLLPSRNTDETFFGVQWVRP
# METHOD_NOTES: SPR (Biacore 8K, 37 C): CD70 captured via anti-AviTag antibody on C1 chip, scFv-Fc as analyte; 1:1 Langmuir fit
TEST_READOUT: Kd (nM)
Give bare numbers, in nM.

// known answers, use as guide
>  <BINDER>
P08E02 anti-CD70 scFv-Fc fusion (Fc fusion, scFv-Fc expressed in Expi293; not shown: part of the hinge and Fc from a modified human IgG2) EVQLVQSGAEVKKPGESLKISCKGSGYSFTSSWIGWVRQMPGKGLEWMGIIYPGDSDTRYSPSFQGQVTISADKSISTAYLQWSSLKASDTAMYYCAKGLSQAMTGFGFDYWGQGTLVTVSSGGGGSGGGGSGGGGSGGGGSELDIQMTQSPSSLSASVGDRVTITCRASQSISRYLNWYQQKPGKAPKLLIYAASILQTGVPSRFSGSGSGTDFTLTISSLQPEDFATYYCQQSYSTTMWTFGQGTKVEIK

>  <Kd / nM>
5.3

$$$$
>  <BINDER>
12D7 anti-CD70 scFv-Fc fusion (Fc fusion, scFv-Fc expressed in Expi293; not shown: part of the hinge and Fc from a modified human IgG2) QVQLVESGGGVVQPGRSLRLSCVASGFTFSDYGIHWVRQAPGMGQEWVAVIWYDGSIKKYSDSVKGRFIISRDNSENTVYLQMNSLRGEDTAIYYCARDEVGTFGAFDFWGQGTKVTVSSGGGGSGGGGSGGGGSGGGGSDIQLTQSPSFLSASVGDRVSITCRASQDISSFLAWYQQKPGKAPVLLIYVASTLQSGVPSRFSGSGSGTEFTLTVSSLQPEDFATYYCQQLHVYPITFGQGTRLEIR

>  <Kd / nM>
1.7

$$$$
>  <BINDER>
11E1 anti-CD70 scFv-Fc fusion (Fc fusion, scFv-Fc expressed in Expi293; not shown: part of the hinge and Fc from a modified human IgG2) QVQLQESGPGLVKPLQTLSLTCTVSGGSISSDGYYWSWIRQNPGKGLEWIGYMYYSGSTYYNPSLKSRVTISVDTSKNQFSLKLRSVTAADTAVYYCTRDFGWYFDLWGRGTLVTVSSGGGGSGGGGSGGGGSGGGGSDIQMTQSPSSLSASVGDSITITCRASQDIDNYLAWYQQKTGKVPKVLIYAASALQSGVPSRFSGSGSGTDFTLTISSLQPEDVATYYCQNYNSGPRTFGQGTKVEIK

>  <Kd / nM>
1.7

$$$$
>  <BINDER>
4F11 anti-CD70 scFv-Fc fusion (Fc fusion, scFv-Fc expressed in Expi293; not shown: part of the hinge and Fc from a modified human IgG2) QVTLKESGPVLVKPTETLTLTCTVSGFSLSNARMGVTWIRQPPGKALEWLAHIFSNDEKSYSTSLKSRLTISKDTSKTQVVLTMTNMDPVDTATYYCARIRDYYDISSYYDYWGQGTLVSVSSGGGGSGGGGSGGGGSGGGGSDIQMTQSPSAMSASVGDRVTITCRASQDISNYLAWFQQKPGKVPKRLIYAASSLQSGVPSRFSGSGSGTEFTLTISSLLPEDFATYYCLQLNSFPFTFGGGTKVEIN

>  <Kd / nM>
1.9

$$$$
>  <BINDER>
12C4 anti-CD70 scFv-Fc fusion (Fc fusion, scFv-Fc expressed in Expi293; not shown: part of the hinge and Fc from a modified human IgG2) QVQLVQSGAEVKKPGASVKVSCKASGYTFTGYYLHWVRQAPGQGLEWMGWINPNSGGTNYAQKFQGRVTMTRDTSITTAYMELSRLRIDDTAVYYCARDRGVTMIVDGMDDWGQGTTVTVSSGGGGSGGGGSGGGGSGGGGSDIVMTQSPLSLPVTPGEPASISCRSSQSLLHSNGYNYLDWYLQKPGQSPQVLILLGSNRASGVPDRVSASGSGTDFTLKISRMQAEDVGIYYCMQTLQTPFTFGQGTKLEIK

>  <Kd / nM>
0.3

$$$$
>  <BINDER>
P12B09 anti-CD70 scFv-Fc fusion (Fc fusion, scFv-Fc expressed in Expi293; not shown: part of the hinge and Fc from a modified human IgG2) EVQLLESGGGLVQPGGSLRLSCAASGFTFSQYSMSWVRQAPGKGLEWVSAISGGGVSTYYADSVKGRFTISRDNSKNTLYLQMNSLRAEDTAVYYCASDISDSGGSHWYFDYWGQGTLVTVSSGGGGSGGGGSGGGGSGGGGSELDIQMTQSPSSLSASVGDRVTITCRASQYIGRYLNWYQQKRGKAPKLLIHGATSLASGVPSRFSGSGSGTDFTLTISSLQPEDFATYYCQQSYSTTSPTFGQGTKVEIK

>  <Kd / nM>
4.1

$$$$
>  <BINDER>
P13F04 anti-CD70 scFv-Fc fusion (Fc fusion, scFv-Fc expressed in Expi293; not shown: part of the hinge and Fc from a modified human IgG2) QVQLVQSGAEVKKPGSSVKVSCKASGGTFSSYAISWVRQAPGQGLEWMGEIIPIFGTASYAQKFQGRVTITADESTSTAYMELSSLRSEDTAVYYCARAGWDDSWFDYWGQGTLVTVSSGGGGSGGGGSGGGGSGGGGSELQSVLTQPPSASGTPGQRVTISCSGSNSNIGTNYVSWYQQLPGTAPKLLIYRSSRRPSGVPDRFSGSKSGTSASLAISGLRSEDEADYYCAAWDGSLSGHWVFGTGTKLTVL

>  <Kd / nM>
205

$$$$
>  <BINDER>
8C8 anti-CD70 scFv-Fc fusion (Fc fusion, scFv-Fc expressed in Expi293; not shown: part of the hinge and Fc from a modified human IgG2) EVQLVESGGGLVKPGGSLRLSCVASGFTFSSYSMNWVRQFPGKGLEWVSSISTSSNYIHYADSLQGRFTISRDNAKNSLYLQMSSLRVEDTAVYYCVRDKGTTLTNWYFDLWGRGTLVTVSSGGGGSGGGGSGGGGSGGGGSDMQMTQSPSSLSASVGDRVTLTCRASQGISNYLAWFQLKPGKVPKLLIYAASTLQSGVPSRFSGSGSGTDFALTISSLQPEDVATYYCQKYNSAPLTFGGGTKVEIK

>  <Kd / nM>
15.4

$$$$

Please turn your attention to the following entry.
Input line: Quote Kd reported for P08G02 anti-CD70 scFv-Fc fusion (Fc fusion, scFv-Fc expressed in Expi293; not shown: part of the hinge and Fc from a modified human IgG2) EVQLVQSGAEVKKPGESLKISCKGSGYTFPSSWIGWVRQMPGKGLEWMGIIYPDTSHTRYSPSFQGQVTISADKSISTAYLQWSSLKASDTAMYYCARASYFDRGTGYSSWWMDVWGQGTLVTVSSGGGGSGGGGSGGGGSGGGGSELDIQMTQSPSSLSASVGDRVTITCRASQSIYDYLHWYQQKPGKAPKLLIYDASNLQSGVPSRFSGSGSGTDFTLTISSLQPEDFATYYCQQSYTTPLFTFGQGTKVEIK please.
Output line: 330
